Measured Optimal dose accompanies every entry in the list below.
# Test system: P388
# Assay text: Inhibition of 10e6 P388 leukemic cells in mice, intraperitoneal administration
# Type: functional, Mus musculus
Parameter: Optimal dose (mg/kg)

{"Compound": "Cc1cccc2oc3c(CC(=O)O)cccc3c(=O)c12", "Parameter": "Optimal dose", "Output unit": "mg/kg", "Result value": 150}
{"Compound": "O=C(O)Cc1ccc(Cl)c2c(=O)c3ccccc3oc12", "Parameter": "Optimal dose", "Output unit": "mg/kg", "Result value": 220}
{"Compound": "Cc1ccc2c(=O)c3cccc(CC(=O)O)c3oc2c1", "Parameter": "Optimal dose", "Output unit": "mg/kg", "Result value": 100}
{"Compound": "COc1ccc2oc3c(CC(=O)O)cccc3c(=O)c2c1", "Parameter": "Optimal dose", "Output unit": "mg/kg", "Result value": 150}
{"Compound": "Cc1ccc2c(=O)c3ccccc3oc2c1CC(=O)O", "Parameter": "Optimal dose", "Output unit": "mg/kg", "Result value": 100}
{"Compound": "O=C(O)Cc1c(Cl)ccc2c(=O)c3ccccc3oc12", "Parameter": "Optimal dose", "Output unit": "mg/kg", "Result value": 150}
{"Compound": "COc1cc(CC(=O)O)c2oc3ccccc3c(=O)c2c1", "Parameter": "Optimal dose", "Output unit": "mg/kg", "Result value": 225}
{"Compound": "Cc1cccc2c(=O)c3cccc(CC(=O)O)c3oc12", "Parameter": "Optimal dose", "Output unit": "mg/kg", "Result value": 30}
{"Compound": "O=C(O)Cc1cccc2c(=O)c3ccccc3oc12", "Parameter": "Optimal dose", "Output unit": "mg/kg", "Result value": 150}
{"Compound": "O=C(O)Cc1cccc2c(=O)c3cccc([N+](=O)[O-])c3oc12", "Parameter": "Optimal dose", "Output unit": "mg/kg", "Result value": 150}
{"Compound": "O=C(O)Cc1cccc2c(=O)c3cccc(O)c3oc12", "Parameter": "Optimal dose", "Output unit": "mg/kg", "Result value": 150}
{"Compound": "O=C(O)Cc1cccc2c(=O)c3ccc(Cl)cc3oc12", "Parameter": "Optimal dose", "Output unit": "mg/kg", "Result value": 65}
{"Compound": "COc1ccc2c(=O)c3ccccc3oc2c1CC(=O)O", "Parameter": "Optimal dose", "Output unit": "mg/kg", "Result value": 220}
{"Compound": "O=C(O)Cc1cccc2c(=O)c3ccc(O)cc3oc12", "Parameter": "Optimal dose", "Output unit": "mg/kg", "Result value": 225}
{"Compound": "COc1ccc2c(=O)c3cccc(CC(=O)O)c3oc2c1", "Parameter": "Optimal dose", "Output unit": "mg/kg", "Result value": 65}
{"Compound": "O=C(O)Cc1cccc2c(=O)cc(-c3ccccc3)oc12 [MITOFLAXONE]", "Parameter": "Optimal dose", "Output unit": "mg/kg", "Result value": 150}
{"Compound": "O=C(O)Cc1ccc2c(=O)c3ccccc3oc2c1", "Parameter": "Optimal dose", "Output unit": "mg/kg", "Result value": 225}
{"Compound": "O=C(O)Cc1cccc2oc3ccccc3c(=O)c12", "Parameter": "Optimal dose", "Output unit": "mg/kg", "Result value": 500}
{"Compound": "O=C(O)Cc1cccc2c(=O)c3cc([N+](=O)[O-])ccc3oc12", "Parameter": "Optimal dose", "Output unit": "mg/kg", "Result value": 225}
{"Compound": "O=C(O)Cc1cccc2c(=O)c3c(Cl)cccc3oc12", "Parameter": "Optimal dose", "Output unit": "mg/kg", "Result value": 330}
{"Compound": "Cc1cc(CC(=O)O)c2oc3ccccc3c(=O)c2c1", "Parameter": "Optimal dose", "Output unit": "mg/kg", "Result value": 330}
{"Compound": "O=C(O)Cc1cccc2c(=O)c3cccc(Cl)c3oc12", "Parameter": "Optimal dose", "Output unit": "mg/kg", "Result value": 65}
